procedureDetails: Ratio of AUC (0 to infinity) in Wistar rat brain to plasma at 10 mg/kg, po measured after 5 hrs by HPLC-MS/MS analysis
Type: ADME, organism-based
metric: Kp at 5 h

GET /values?readout=Kp at 5 h&item= CCNC(=O)[C@H]1CC(=O)[C@@]2(C)CC[C@@H]3c4ccc(OCCCN5CCC[C@H]5C)cc4CC[C@H]3[C@H]12
0.24

====

procedureDetails: Fraction of drug metabolized in human microsomes
Format: ADME, Microsome
conditions: read-out: Fm
metric: metabolised (%)
Numbers only here, please. The scale is %.

Some solved cases for reference:
>  <compoundStructureString>
CCNC(=O)[C@H]1C[C@H](OC)[C@@]2(C)CC[C@@H]3c4ccc(OCCCN5CCC[C@H]5C)cc4CC[C@H]3[C@H]12

>  <metric>
metabolised

>  <units>
%

>  <quantitativeReadout>
96

$$$$
>  <compoundStructureString>
CC(=O)N[C@@H]1CC(=O)[C@@]2(C)CC[C@@H]3c4ccc(OCCCN5CCC[C@H]5C)cc4CC[C@H]3[C@H]12

>  <metric>
metabolised

>  <units>
%

>  <quantitativeReadout>
85

$$$$
>  <compoundStructureString>
C[C@@H]1CCCN1CCCOc1ccc2c(c1)CC[C@H]1[C@@H]3[C@@H](C(=O)NCC4CC4)CC[C@@]3(C)CC[C@H]21

>  <metric>
metabolised

>  <units>
%

>  <quantitativeReadout>
90

$$$$
>  <compoundStructureString>
C[C@]12CC[C@@H]3c4ccc(OCCCN5CCCC5=O)cc4CC[C@H]3[C@@H]1CC[C@@H]2N1CCCC1

>  <metric>
metabolised

>  <units>
%

>  <quantitativeReadout>
77

$$$$
>  <compoundStructureString>
C[C@@H]1CCCN1CCCOc1ccc2c(c1)CC[C@H]1[C@@H]3[C@@H](C(=O)NCC4CCC4)CC[C@@]3(C)CC[C@H]21

>  <metric>
metabolised

>  <units>
%

>  <quantitativeReadout>
48

$$$$
>  <compoundStructureString>
C[C@H]1CCCN1CCCOc1ccc2c(c1)CC[C@H]1[C@@H]3[C@H](C(=O)N4CCCC4)CC(=O)[C@@]3(C)CC[C@H]21

>  <metric>
metabolised

>  <units>
%

>  <quantitativeReadout>
75

$$$$
>  <compoundStructureString>
CCNC(=O)[C@H]1CC(=O)[C@@]2(C)CC[C@@H]3c4ccc(OCCCN5CCC[C@H]5C)cc4CC[C@H]3[C@H]12

>  <metric>
metabolised

>  <units>
%

>  <quantitativeReadout>
99

$$$$

Kindly consider the entry below.
GET /values?readout=metabolised&item= CCNC(=O)[C@H]1CC[C@@]2(C)CC[C@@H]3c4ccc(OCCCN5CCC[C@H]5C)cc4CC[C@H]3[C@H]12
62

====

testedOn: Histamine H3 receptor (Homo sapiens, UniProt Q9Y5N1)
Sequence (Q9Y5N1 whole entry): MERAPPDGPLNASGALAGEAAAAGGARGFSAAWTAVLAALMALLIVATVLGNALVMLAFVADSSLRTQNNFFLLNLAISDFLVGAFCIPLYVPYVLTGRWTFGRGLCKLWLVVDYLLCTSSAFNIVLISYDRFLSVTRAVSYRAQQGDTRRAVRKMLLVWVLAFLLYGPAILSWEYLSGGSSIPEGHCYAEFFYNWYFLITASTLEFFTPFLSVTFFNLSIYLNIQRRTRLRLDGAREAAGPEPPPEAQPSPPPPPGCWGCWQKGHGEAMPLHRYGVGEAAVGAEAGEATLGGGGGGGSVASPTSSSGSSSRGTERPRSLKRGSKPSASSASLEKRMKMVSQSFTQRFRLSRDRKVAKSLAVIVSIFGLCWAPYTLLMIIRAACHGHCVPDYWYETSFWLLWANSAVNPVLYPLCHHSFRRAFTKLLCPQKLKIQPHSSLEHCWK
procedureDetails: Displacement of [3H]methyl- N-alpha methylhistamine dihydrochloride from human recombinant H3 receptor expressed in CHOK1 cells measured after 30 mins by liquid scintillation counter method
Our labelling divides records by Ki into ranges: one = under 9 nM, two = from 9 nM up to 40 nM, three = 40 nM and over

Would you please look over these solved cases?
>  <compoundStructureString>
CCNC(=O)[C@@H]1CC(=O)[C@@]2(C)CC[C@@H]3c4ccc(OCCN5CCC[C@@H]5C)cc4CC[C@H]3[C@H]12

>  <testedOn>
Histamine H3 receptor (Homo sapiens, UniProt Q9Y5N1)

>  <cat>
three

$$$$
>  <compoundStructureString>
CCNC(=O)[C@H]1CC(=O)[C@@]2(C)CC[C@@H]3c4ccc(OCCCN5CCC(F)CC5)cc4CC[C@H]3[C@H]12

>  <testedOn>
Histamine H3 receptor (Homo sapiens, UniProt Q9Y5N1)

>  <cat>
three

$$$$
>  <compoundStructureString>
CCNC(=O)[C@@H]1CC(=O)[C@@]2(C)CC[C@@H]3c4ccc(OCCCN5CCC[C@H]5C)cc4CC[C@H]3[C@H]12

>  <testedOn>
Histamine H3 receptor (Homo sapiens, UniProt Q9Y5N1)

>  <cat>
three

$$$$
>  <compoundStructureString>
CCNC(=O)[C@H]1CC(=O)[C@@]2(C)CC[C@@H]3c4ccc(OCCCN5CC[C@@H](F)C5)cc4CC[C@H]3[C@H]12

>  <testedOn>
Histamine H3 receptor (Homo sapiens, UniProt Q9Y5N1)

>  <cat>
three

$$$$
>  <compoundStructureString>
C[C@H]1CCCN1CCCOc1ccc2c(c1)CC[C@H]1[C@@H]3[C@H](C(=O)N4CCCC4)CC(=O)[C@@]3(C)CC[C@H]21

>  <testedOn>
Histamine H3 receptor (Homo sapiens, UniProt Q9Y5N1)

>  <cat>
two

$$$$

For CCN(CC)C(=O)[C@@H]1CC(=O)[C@@]2(C)CC[C@@H]3c4ccc(OCCCN5CCC[C@@H]5C)cc4CC[C@H]3[C@H]12 , which Ki bin applies?
two

For CCNC(=O)[C@H]1CC(=O)[C@@]2(C)CC[C@@H]3c4ccc(OCCCN5CCC[C@H]5C)cc4CC[C@H]3[C@H]12 , which Ki bin applies?
one

====

procedureDetails: Kinetic solubility of compound
Format: physicochemical
conditions: read-out: Kinetic_solubility
metric: solubility kinetic (µM)
Numbers only here, please. The scale is µM.

GET /values?readout=solubility kinetic&item= CCNC(=O)[C@H]1CC(=O)[C@@]2(C)CC[C@@H]3c4ccc(OCCCN5CCC[C@H]5C)cc4CC[C@H]3[C@H]12
250

====

testedOn: Muscarinic acetylcholine receptor (Rattus norvegicus) (UniProt P08482+P08483+P08485+P08911+P10980)
procedureDetails: Displacement of [3H]quinuclidinyl benzilate from Wistar rat cortex muscarinic acetylcholine receptor at 3 uM by liquid scintillation counter method relative to control
metric: Activity (%)
Numbers only here, please. The scale is %.

Some solved cases for reference:
>  <compoundStructureString>
CCNC(=O)[C@H]1C[C@H](OC)[C@@]2(C)CC[C@@H]3c4ccc(OCCCN5CCC[C@H]5C)cc4CC[C@H]3[C@H]12

>  <units>
%

>  <Activity>
7

$$$$
>  <compoundStructureString>
C[C@@H]1CCCN1CCCOc1ccc2c(c1)CC[C@H]1[C@@H]3[C@@H](C(=O)NCC4CC4)CC[C@@]3(C)CC[C@H]21

>  <units>
%

>  <Activity>
27

$$$$
>  <compoundStructureString>
CCNC(=O)[C@H]1CC[C@@]2(C)CC[C@@H]3c4ccc(OCCCN5CCC[C@H]5C)cc4CC[C@H]3[C@H]12

>  <units>
%

>  <Activity>
24

$$$$

Kindly consider the entry below.
GET /values?readout=Activity&item= CCNC(=O)[C@@H]1CC(=O)[C@@]2(C)CC[C@@H]3c4ccc(OCCN5CCC[C@@H]5C)cc4CC[C@H]3[C@H]12
4

====

procedureDetails: Tmax in Wistar rat brain at 10 mg/kg, po measured after 5 hrs by HPLC-MS/MS analysis
Assay type: ADME, organism-based
metric: Tmax (h)
Numbers only here, please. The scale is h.

GET /values?readout=Tmax&item= CCNC(=O)[C@H]1CC(=O)[C@@]2(C)CC[C@@H]3c4ccc(OCCCN5CCC[C@H]5C)cc4CC[C@H]3[C@H]12
1

====

testedOn: Muscarinic acetylcholine receptor (Rattus norvegicus) (UniProt P08482+P08483+P08485+P08911+P10980)
procedureDetails: Displacement of [3H]quinuclidinyl benzilate from Wistar rat cortex muscarinic acetylcholine receptor at 3 uM by liquid scintillation counter method relative to control
Entries and their measured Activity follow.
Numbers only here, please. The scale is %.

Some solved cases for reference:
>  <compoundStructureString>
C[C@H]1CCCN1CCCOc1ccc2c(c1)CC[C@H]1[C@@H]3[C@H](C(=O)N4CCCC4)CC(=O)[C@@]3(C)CC[C@H]21

>  <units>
%

>  <quantitativeReadout>
16

$$$$
>  <compoundStructureString>
CC(=O)N[C@@H]1CC(=O)[C@@]2(C)CC[C@@H]3c4ccc(OCCCN5CCC[C@H]5C)cc4CC[C@H]3[C@H]12

>  <units>
%

>  <quantitativeReadout>
20

$$$$
>  <compoundStructureString>
C[C@@H]1CCCN1CCCOc1ccc2c(c1)CC[C@@H]1[C@@H]2CC[C@]2(C)[C@@H](N3CCCC3=O)CC[C@@H]12

>  <units>
%

>  <quantitativeReadout>
51

$$$$

Kindly consider the entry below.
GET /values?readout=Activity&item= CCNC(=O)[C@@H]1CC(=O)[C@@]2(C)CC[C@@H]3c4ccc(OCCCCN5CCC[C@@H]5C)cc4CC[C@H]3[C@H]12
17

====

testedOn: UniProtKB Q9QYN8
Sequence (Q9QYN8 whole entry): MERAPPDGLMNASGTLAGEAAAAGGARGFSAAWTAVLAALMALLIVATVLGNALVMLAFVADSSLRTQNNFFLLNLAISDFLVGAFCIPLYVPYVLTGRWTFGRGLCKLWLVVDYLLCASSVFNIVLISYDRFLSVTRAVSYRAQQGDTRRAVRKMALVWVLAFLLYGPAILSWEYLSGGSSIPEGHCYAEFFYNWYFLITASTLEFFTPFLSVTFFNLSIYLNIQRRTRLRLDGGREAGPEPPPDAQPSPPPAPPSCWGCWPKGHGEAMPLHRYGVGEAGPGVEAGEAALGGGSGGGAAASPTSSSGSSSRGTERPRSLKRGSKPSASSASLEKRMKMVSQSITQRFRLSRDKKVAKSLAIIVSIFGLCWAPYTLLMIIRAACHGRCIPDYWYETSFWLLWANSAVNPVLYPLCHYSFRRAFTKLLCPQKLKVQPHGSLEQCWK
Entries and their measured pKi follow.
In textbook form, pKi equals minus log to base ten of the concentration in mol/L.

Some solved cases for reference:
>  <compoundStructureString>
C[C@]12CC[C@@H]3c4ccc(OCCCN5CCCC5=O)cc4CC[C@H]3[C@@H]1CC[C@@H]2N1CCCC1

>  <quantitativeReadout>
7.66

$$$$
>  <compoundStructureString>
C[C@@H]1CCCN1CCCOc1ccc2c(c1)CC[C@H]1[C@@H]3[C@@H](C(=O)NCC4CCC4)CC[C@@]3(C)CC[C@H]21

>  <quantitativeReadout>
7.72

$$$$

Value wanted: pKi (UniProtKB Q9QYN8) of entry CCNC(=O)[C@H]1CC[C@@]2(C)CC[C@@H]3c4ccc(OCCCN5CCC[C@H]5C)cc4CC[C@H]3[C@H]12
7.62

Value wanted: pKi (UniProtKB Q9QYN8) of entry C[C@@H]1CCCN1CCCOc1ccc2c(c1)CC[C@@H]1[C@@H]2CC[C@]2(C)[C@@H](C(=O)N3CCCC3)CC[C@@H]12
7.74
